- ASSAYED TARGET: CD80-CD28 interaction (Homo sapiens, UniProt P33681)
- Sequence (P33681 35-242 limits assumed): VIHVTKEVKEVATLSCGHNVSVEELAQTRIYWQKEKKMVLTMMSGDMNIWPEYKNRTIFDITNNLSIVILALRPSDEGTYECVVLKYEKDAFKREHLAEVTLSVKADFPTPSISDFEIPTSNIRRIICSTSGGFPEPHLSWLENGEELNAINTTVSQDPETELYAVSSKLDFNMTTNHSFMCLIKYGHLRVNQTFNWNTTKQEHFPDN
- PROTOCOL NOTES: Homogenous Time Resolved Fluorescence (HTRF) assay, cell free
- Format: binding
- APPLIED CONDITIONS: cell free HTRF assay; concentration series 100 μM-1.7 nM; 4 hours at room temperature; read-out: Activity (EC50 in the HTRF assay)
We begin with a simple list: items and their reported EC50.

Some compounds with known EC50 results, for comparison:
> print(dat)
                                   compound       test.result
1  CNCCNC(=O)c1ccc(-n2[nH]c3c(nnc4c(F)cccc43)c2=O)cc1 [Example 356]         < 1000 nM
2  CN1C(C)(C)CC(NC(=O)c2ccc(-n3[nH]c4c(nnc5c(F)ccc(F)c54)c3=O)cc2)CC1(C)C [Example 431]         < 1000 nM
3  O=C(c1ccc(-n2[nH]c3c(nnc4c(F)cccc43)c2=O)cc1)N1CCC(N2CCCCC2)CC1 [Example 421]  1000 to 10000 nM
4  CC(C)(C)OC(=O)N1CCN(CCNC(=O)Nc2ccc(-n3[nH]c4c(nnc5ccccc54)c3=O)cc2)CC1 [Example 294]  1000 to 10000 nM
5  O=C(NCCc1ccccc1Cl)c1ccc(-n2[nH]c3c(nnc4c(F)cccc43)c2=O)cc1 [Example 360]  1000 to 10000 nM
6  CCOC(=O)N1CCC(NC(=O)Nc2ccc(-n3[nH]c4c(nnc5ccccc54)c3=O)cc2)CC1 [Example 303]        > 10000 nM
7  CCCCNCCNC(=O)c1ccc(-n2[nH]c3c(nnc4ccccc43)c2=O)cc1 [Example 279]         < 1000 nM
8  NCCCCNC(=O)c1ccc(-n2[nH]c3c(nnc4c(F)cccc43)c2=O)cc1 [Example 351]         < 1000 nM

Proceeding to the next compound to report its EC50.
Lookup: Enter reported EC50 observed with CD80-CD28 interaction (Homo sapiens, UniProt P33681) for O=C(NCCCN1CCOCC1)c1ccc(-n2[nH]c3c(nnc4cccc(F)c43)c2=O)cc1 [Example 397]
Found: < 1000 nM

###

- ASSAYED TARGET: CD80-CD28 interaction (Homo sapiens)
- PROTOCOL NOTES: Homogenous Time Resolved Fluorescence (HTRF) assay, cell free
- Assay type: binding
- APPLIED CONDITIONS: cell free HTRF assay; concentration series 100 μM-1.7 nM; 4 hours at room temperature; read-out: Activity (EC50 in the HTRF assay)
pEC50: −log10 of the molar value.
Listed here: items and their measured pEC50.

These recorded examples may help you get a feel for the data.
> print(dat)
                                   molecule  test.result
1  O=C(NC1CCN(Cc2ccccc2)CC1)c1ccc(-n2[nH]c3c(nnc4ccc(F)cc43)c2=O)cc1       > 6.00
2  O=C(NCCSc1cc(C(F)(F)F)nc2ccccc12)Nc1ccc(-n2[nH]c3c(nnc4ccccc43)c2=O)cc1       < 5.00
3  Cc1ccc2nnc3c(=O)n(-c4ccc(C(=O)NCCCCN5CCCC5)cc4)[nH]c3c2c1       > 6.00
4  O=C(NCc1cccc(F)c1)c1ccc(-n2[nH]c3c(nnc4ccccc43)c2=O)cc1       > 6.00
5  CC(NC(=O)Nc1ccc(-n2[nH]c3c(nnc4ccccc43)c2=O)cc1)C1CCCCC1 (centres unmarked)       < 5.00
6  CCN(CC)CCNC(=O)c1ccc(-n2[nH]c3c(nnc4c(F)cccc43)c2=O)cc1       > 6.00

Lookup: Entry O=C(NCCc1c(Cl)cccc1Cl)c1ccc(-n2[nH]c3c(nnc4c(F)cccc43)c2=O)cc1 : reported pEC50 = ?
Found: 5.00 to 6.00

Lookup: State the recorded pEC50 for this entry: C#CC1(NC(=O)c2ccc(-n3[nH]c4c(nnc5ccccc54)c3=O)cc2)CCCCC1
Found: > 6.00

###

In this section, each of the molecules is paired with its reported EC50.
- ASSAYED TARGET: CD80-CD28 interaction (Homo sapiens)
- PROTOCOL NOTES: Homogenous Time Resolved Fluorescence (HTRF) assay, cell free
- Assay type: binding
- APPLIED CONDITIONS: inhibition of the CD80-CD28 interaction, 4 hours at room temperature; read-out: EC50 activity in the HTRF assay

> print(dat)
                                   molecule                        assayed.target  parameter  test.result
1  CN(C)CCCNC(=O)c1ccc(-n2[nH]c3c(nnc4ccccc43)c2=O)cc1 [Example 2]  CD80-CD28 interaction (Homo sapiens)       EC50       < 1 µM
2  O=C(O)c1ccc(-n2[nH]c3c(nnc4ccccc43)c2=O)cc1 [Example 1]  CD80-CD28 interaction (Homo sapiens)       EC50      > 10 µM
3  O=C(NCc1ccccc1)c1ccc(-n2[nH]c3c(nnc4ccccc43)c2=O)cc1 [Example 3]  CD80-CD28 interaction (Homo sapiens)       EC50       < 1 µM
4  O=C(NCCCNC1CCCCC1)c1ccc(-n2[nH]c3c(nnc4ccccc43)c2=O)cc1 [Example 4]  CD80-CD28 interaction (Homo sapiens)       EC50       < 1 µM

Lookup: Fill in: EC50 of CCOC(=O)c1ccc(-n2[nH]c3c(nnc4ccccc43)c2=O)cc1 [Example 9] is ___
Found: 1 to 10 µM

Lookup: Look up EC50 for this molecule: CN(C)CCCNC(=O)Nc1ccc(-n2[nH]c3c(nnc4ccccc43)c2=O)cc1 [Example 8]
Found: < 1 µM

Lookup: Find the recorded EC50 belonging to O=C(O)c1ccc(-n2[nH]c3c(nnc4c(F)cccc43)c2=O)cc1 [Example 5] and report it.
Found: > 10 µM

Lookup: Record request: EC50 value, item O=C(NCCCCN1CCCC1)c1ccc(-n2[nH]c3c(nnc4c(F)cccc43)c2=O)cc1 [Example 6]
Found: < 1 µM

Lookup: Which EC50 value belongs to CN1C(C)(C)CC(NC(=O)c2ccc(-n3[nH]c4c(nnc5c(F)cccc54)c3=O)cc2)CC1(C)C [Example 7] ?
Found: < 1 µM

###

# Lookup of reported pEC50 keyed by entry
- ASSAYED TARGET: CD80-CD28 interaction (Homo sapiens)
- PROTOCOL NOTES: Homogenous Time Resolved Fluorescence (HTRF) assay, cell free
- Assay type: binding
- APPLIED CONDITIONS: cell free HTRF assay; concentration series 100 μM-1.7 nM; 4 hours at room temperature; read-out: Activity (EC50 in the HTRF assay)
pEC50: −log10 of the molar value.

Worked set:
> print(dat)
                                   compound  parameter   test.result
1  Cc1ccc(CCNC(=O)c2ccc(-n3[nH]c4c(nnc5c(F)cccc54)c3=O)cc2)cc1      pEC50  5.00 to 6.00
2  O=C(NCc1ccc2c(c1)OCO2)Nc1ccc(-n2[nH]c3c(nnc4ccccc43)c2=O)cc1      pEC50        < 5.00
3  O=C(NCCCCN1CCCC1)c1ccc(-n2[nH]c3c(nnc4c(Cl)cccc43)c2=O)cc1      pEC50        > 6.00
4  CCCCCCCNC(=O)c1ccc(-n2[nH]c3c(nnc4ccccc43)c2=O)cc1      pEC50  5.00 to 6.00
5  CNCCCNC(=O)c1ccc(-n2[nH]c3c(nnc4ccc(OC)cc43)c2=O)cc1      pEC50        > 6.00
6  O=C(NC1CCN(Cc2ccccc2)CC1)c1ccc(-n2[nH]c3c(nnc4c(F)cccc43)c2=O)cc1      pEC50        > 6.00

Lookup: Could you share which pEC50 value was measured for CCC(CC)CNC(=O)Nc1ccc(-n2[nH]c3c(nnc4ccccc43)c2=O)cc1 ?
Found: < 5.00

Lookup: Which pEC50 is reported for this compound? CCC(C)NC(=O)Nc1ccc(-n2[nH]c3c(nnc4ccccc43)c2=O)cc1 (stereo not shown)
Found: 5.00 to 6.00

Lookup: Item under review: CCCCC(C)NC(=O)c1ccc(-n2[nH]c3c(nnc4ccccc43)c2=O)cc1 (stereo not shown) . Reported pEC50?
Found: > 6.00

Lookup: # query: pEC50 of entry CCNCCNC(=O)c1ccc(-n2[nH]c3c(nnc4c(F)cccc43)c2=O)cc1
Found: > 6.00

Attribution: patent US8309552B2
